Attribution: ChEMBL document CHEMBL6120968

assay_name: Half life in rat at 20 mg/kg, po by LC-MS/MS analysis
Type: ADME, organism-based
recorded_conditions: in vivo
measurement_kind: half-life (h)
Give the value in h but do not write h after it.

Exercise: Quote half-life reported for "Cc1oc(-c2cccc(C(F)(F)F)c2)cc1C(=O)Nc1nc(CN2CCOCC2)ns1" please.
Solution: 6.86

* * *

assay_name: Observed apparent volume of distribution during terminal phase in rat at 20 mg/kg, po by LC-MS/MS analysis
Format: ADME, organism-based
recorded_conditions: in vivo, read-out: Vz/F_obs
measurement_kind: Vd/F (L/kg)
Give the value in L/kg but do not write L/kg after it.

Exercise: Quote Vd/F reported for "Cc1oc(-c2cccc(C(F)(F)F)c2)cc1C(=O)Nc1nc(CN2CCOCC2)ns1" please.
Solution: 11.1
